Value source: the supplement of paper PMC9112550

System: Escherichia coli TOP10
test-method-notes: shrunken log2 fold change of peptide-encoding DNA abundance (4.5 h post-induction vs induction); higher = less antimicrobial activity (less host growth inhibition)
cond: time post-induction: 4.5 h; library: site-saturation at positions 5, 18, 19, 20
measurement-kind: shrunken log2 fold change
Reply with the value as a number alone.

# count of solved cases: 8
| seq-string | measurement-kind | recorded-result |
| --- | --- | --- |
| RRIRPRPPRLPRPRPRPQHWPRP | shrunken log2 fold change | 0.265 |
| RRIRVRPPRLPRPRPRPCVQPRP | shrunken log2 fold change | 0.0444 |
| RRIRIRPPRLPRPRPRPNNEPRP | shrunken log2 fold change | -0.597 |
| RRIRTRPPRLPRPRPRPNYSPRP | shrunken log2 fold change | -0.382 |
| RRIRARPPRLPRPRPRPGEFPRP | shrunken log2 fold change | 0.388 |
| RRIRARPPRLPRPRPRPVSPPRP | shrunken log2 fold change | 0.664 |
| RRIRDRPPRLPRPRPRPVNDPRP | shrunken log2 fold change | -0.163 |
| RRIRNRPPRLPRPRPRPRWQPRP | shrunken log2 fold change | -0.00911 |

Please provide the recorded shrunken log2 fold change for RRIRYRPPRLPRPRPRPKAVPRP , tested on Escherichia coli TOP10.
-0.163

Please provide the recorded shrunken log2 fold change for RRIRQRPPRLPRPRPRPYAFPRP , tested on Escherichia coli TOP10.
-0.175

Please provide the recorded shrunken log2 fold change for RRIRNRPPRLPRPRPRPFNLPRP , tested on Escherichia coli TOP10.
-0.207

Please provide the recorded shrunken log2 fold change for RRIRGRPPRLPRPRPRPLDRPRP , tested on Escherichia coli TOP10.
0.732

Please provide the recorded shrunken log2 fold change for RRIRNRPPRLPRPRPRPMPVPRP , tested on Escherichia coli TOP10.
-0.139

Please provide the recorded shrunken log2 fold change for RRIRTRPPRLPRPRPRPTTWPRP , tested on Escherichia coli TOP10.
-0.0444

Please provide the recorded shrunken log2 fold change for RRIRLRPPRLPRPRPRPAHNPRP , tested on Escherichia coli TOP10.
0.255

Please provide the recorded shrunken log2 fold change for RRIRDRPPRLPRPRPRPSSEPRP , tested on Escherichia coli TOP10.
0.186

Please provide the recorded shrunken log2 fold change for RRIRQRPPRLPRPRPRPSGCPRP , tested on Escherichia coli TOP10.
0.0869

Please provide the recorded shrunken log2 fold change for RRIRARPPRLPRPRPRPFNPPRP , tested on Escherichia coli TOP10.
-0.432

Please provide the recorded shrunken log2 fold change for RRIRCRPPRLPRPRPRPSDAPRP , tested on Escherichia coli TOP10.
-0.0145

Please provide the recorded shrunken log2 fold change for RRIRERPPRLPRPRPRPNQYPRP , tested on Escherichia coli TOP10.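 Also: peptides expressed intracellularly from a pBAD plasmid library in pooled LB shake-flask culture, induced with 0.3% L-arabinose, DNA abundance read by NGS, three biological replicates, DESeq2 with apeglm shrinkage.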
-0.674
